test system: Staphylococcus aureus; assay: Antibacterial activity against methicillin-susceptible Staphylococcus aureus ATCC 29213 at 10 uM by disc diffusion method; type: functional; conditions: read-out: DIZ
measured-quantity: zone of inhibition at 10 µM (mm)
Note: unit mm is implicit; provide only the numeric part.

Challenge: Give its zone of inhibition at 10 µM value. Item: O=C(O)c1cn(C2CC2)c2cc(N3CCN(Sc4ccc([N+](=O)[O-])cc4)CC3)c(F)cc2c1=O
Response given: 29

Challenge: Thanks! And CCCCSN1CCN(c2cc3c(cc2F)c(=O)c(C(=O)O)cn3C2CC2)CC1 ?
Response given: 22

Challenge: // repeat for CC(C)SN1CCN(c2cc3c(cc2F)c(=O)c(C(=O)O)cn3C2CC2)CC1 and report
Response given: 21

Challenge: Next compound up: CCCCCCSN1CCN(c2cc3c(cc2F)c(=O)c(C(=O)O)cn3C2CC2)CC1
Response given: 18

Challenge: For O=C(O)c1cn(C2CC2)c2cc(N3CCN(Sc4ccccc4[N+](=O)[O-])CC3)c(F)cc2c1=O then?
Response given: 18

Challenge: Could you do the same for CSN1CCN(c2cc3c(cc2F)c(=O)c(C(=O)O)cn3C2CC2)CC1 , please?
Response given: 24

Challenge: Thanks! And CC(C)C(C)SN1CCN(c2cc3c(cc2F)c(=O)c(C(=O)O)cn3C2CC2)CC1 (stereo not drawn) ?
Response given: 28

Challenge: Another: CCC(C)SN1CCN(c2cc3c(cc2F)c(=O)c(C(=O)O)cn3C2CC2)CC1 (stereo not drawn)
Response given: 24

Challenge: CCSN1CCN(c2cc3c(cc2F)c(=O)c(C(=O)O)cn3C2CC2)CC1 , same question.
Response given: 24

Challenge: Now this one: O=C(O)c1cn(C2CC2)c2cc(N3CCNCC3)c(F)cc2c1=O
Response given: 23

Challenge: Here is the next compound: O=C(O)c1cn(C2CC2)c2cc(N3CCN(Sc4ccc(Cl)cc4)CC3)c(F)cc2c1=O
Response given: 21

Challenge: Same for CCCSN1CCN(c2cc3c(cc2F)c(=O)c(C(=O)O)cn3C2CC2)CC1
Response given: 29

Challenge: Moving on to the next compound: O=C(O)c1cn(C2CC2)c2cc(N3CCN(Sc4ccccc4)CC3)c(F)cc2c1=O
Response given: 21
